- target of assay: Histone deacetylase 3/Nuclear receptor corepressor 2 (HDAC3/NCoR2) (Homo sapiens)
- Sequence (O15379 whole entry): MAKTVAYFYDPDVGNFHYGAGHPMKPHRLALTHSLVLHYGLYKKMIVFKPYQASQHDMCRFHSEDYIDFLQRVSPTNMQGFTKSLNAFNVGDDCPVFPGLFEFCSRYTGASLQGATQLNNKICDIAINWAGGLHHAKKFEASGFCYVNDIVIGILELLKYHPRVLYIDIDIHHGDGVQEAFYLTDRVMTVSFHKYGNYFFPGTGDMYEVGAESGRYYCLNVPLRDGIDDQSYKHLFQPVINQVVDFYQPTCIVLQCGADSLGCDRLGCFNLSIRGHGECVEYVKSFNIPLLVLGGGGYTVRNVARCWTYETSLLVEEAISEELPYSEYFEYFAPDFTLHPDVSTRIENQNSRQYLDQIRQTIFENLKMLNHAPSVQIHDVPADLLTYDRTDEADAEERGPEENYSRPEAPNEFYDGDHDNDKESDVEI
- Sequence (Q9Y618 whole entry, further chain): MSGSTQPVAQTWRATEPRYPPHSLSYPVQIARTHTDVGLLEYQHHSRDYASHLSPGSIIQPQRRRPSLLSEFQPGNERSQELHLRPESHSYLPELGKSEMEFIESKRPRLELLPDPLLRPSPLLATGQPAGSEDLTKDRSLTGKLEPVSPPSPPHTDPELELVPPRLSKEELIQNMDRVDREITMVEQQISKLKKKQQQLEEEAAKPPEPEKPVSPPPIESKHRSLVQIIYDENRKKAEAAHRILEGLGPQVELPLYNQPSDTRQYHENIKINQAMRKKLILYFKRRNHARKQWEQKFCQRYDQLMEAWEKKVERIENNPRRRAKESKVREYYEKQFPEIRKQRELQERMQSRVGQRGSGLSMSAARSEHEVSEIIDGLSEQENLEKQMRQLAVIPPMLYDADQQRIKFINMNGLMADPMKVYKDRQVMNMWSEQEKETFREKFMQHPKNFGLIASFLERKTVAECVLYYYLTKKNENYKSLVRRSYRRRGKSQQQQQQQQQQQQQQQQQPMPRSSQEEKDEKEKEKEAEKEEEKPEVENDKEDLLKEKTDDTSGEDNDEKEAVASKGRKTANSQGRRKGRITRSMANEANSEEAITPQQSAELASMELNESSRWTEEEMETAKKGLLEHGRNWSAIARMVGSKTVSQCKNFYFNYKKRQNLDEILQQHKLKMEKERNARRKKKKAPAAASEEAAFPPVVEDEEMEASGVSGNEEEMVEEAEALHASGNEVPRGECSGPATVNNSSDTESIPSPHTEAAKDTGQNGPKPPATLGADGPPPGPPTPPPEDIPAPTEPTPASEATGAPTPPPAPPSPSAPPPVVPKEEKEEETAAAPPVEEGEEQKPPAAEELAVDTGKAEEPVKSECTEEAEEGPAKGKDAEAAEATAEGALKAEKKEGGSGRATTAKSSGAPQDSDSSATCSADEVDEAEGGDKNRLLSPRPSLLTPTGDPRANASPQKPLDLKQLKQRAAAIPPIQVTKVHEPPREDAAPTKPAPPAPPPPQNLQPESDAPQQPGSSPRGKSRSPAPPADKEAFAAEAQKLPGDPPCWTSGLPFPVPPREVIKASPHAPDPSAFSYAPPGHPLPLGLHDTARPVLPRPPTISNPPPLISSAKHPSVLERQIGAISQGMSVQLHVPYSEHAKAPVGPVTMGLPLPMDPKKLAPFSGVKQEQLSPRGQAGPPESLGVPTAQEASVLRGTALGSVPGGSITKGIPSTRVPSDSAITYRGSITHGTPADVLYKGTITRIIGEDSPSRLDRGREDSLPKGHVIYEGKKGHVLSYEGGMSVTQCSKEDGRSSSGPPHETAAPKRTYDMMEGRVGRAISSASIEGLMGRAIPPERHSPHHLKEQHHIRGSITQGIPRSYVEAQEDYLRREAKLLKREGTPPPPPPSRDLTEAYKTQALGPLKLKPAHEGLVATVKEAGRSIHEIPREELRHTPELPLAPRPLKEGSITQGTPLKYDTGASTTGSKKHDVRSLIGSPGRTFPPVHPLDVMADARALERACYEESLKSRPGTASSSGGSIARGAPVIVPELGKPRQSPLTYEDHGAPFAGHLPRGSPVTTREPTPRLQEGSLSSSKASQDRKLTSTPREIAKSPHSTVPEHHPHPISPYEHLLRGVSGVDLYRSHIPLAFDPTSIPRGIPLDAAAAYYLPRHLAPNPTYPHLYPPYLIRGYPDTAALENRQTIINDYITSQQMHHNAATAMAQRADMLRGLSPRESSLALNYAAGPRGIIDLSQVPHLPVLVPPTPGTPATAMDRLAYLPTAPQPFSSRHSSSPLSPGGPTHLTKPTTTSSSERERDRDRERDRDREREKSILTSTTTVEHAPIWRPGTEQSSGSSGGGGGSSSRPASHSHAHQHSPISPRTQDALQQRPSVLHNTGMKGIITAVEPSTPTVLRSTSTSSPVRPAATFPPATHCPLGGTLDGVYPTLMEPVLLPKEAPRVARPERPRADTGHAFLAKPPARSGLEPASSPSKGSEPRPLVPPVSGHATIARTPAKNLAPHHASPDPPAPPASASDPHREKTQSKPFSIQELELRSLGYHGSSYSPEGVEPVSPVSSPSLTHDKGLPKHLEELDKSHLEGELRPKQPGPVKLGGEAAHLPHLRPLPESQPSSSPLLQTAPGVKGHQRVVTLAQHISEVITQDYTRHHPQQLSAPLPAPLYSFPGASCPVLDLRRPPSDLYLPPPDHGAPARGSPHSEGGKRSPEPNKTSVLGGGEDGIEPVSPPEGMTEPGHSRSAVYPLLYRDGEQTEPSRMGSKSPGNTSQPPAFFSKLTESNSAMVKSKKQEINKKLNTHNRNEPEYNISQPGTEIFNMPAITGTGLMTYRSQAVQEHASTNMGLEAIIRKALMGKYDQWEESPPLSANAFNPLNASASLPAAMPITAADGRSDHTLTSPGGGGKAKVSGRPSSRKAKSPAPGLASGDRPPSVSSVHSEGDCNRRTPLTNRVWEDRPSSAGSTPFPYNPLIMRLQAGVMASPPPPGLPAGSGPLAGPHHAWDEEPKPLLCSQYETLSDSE
- test description: Inhibition of human recombinant HDAC3/NCOR2 using RHKKAc-AMC as substrate measured after 60 mins by fluorescence assay
Would you kindly list IC50 for each of these compounds?
Please state the number and follow it with the unit.

Solved entries:
Value lookup for IC50; key = `COc1ccc(S(=O)(=O)Nc2ccccc2CCc2ccc(C(=O)Nc3cc(F)ccc3N)cc2)cc1`
1750 nM

Value lookup for IC50; key = `COc1ccc(S(=O)(=O)Nc2ccccc2CCc2ccc(C(=O)Nc3ccccc3N)cc2)cc1`
2550 nM

Value lookup for IC50; key = `COc1ccc(S(=O)(=O)Nc2ccccc2NCc2ccc(C(=O)Nc3ccccc3N)cc2)cc1`
2270 nM

Alright, here's another compound for you.
Value lookup for IC50; key = `COc1ccc(S(=O)(=O)Nc2ccccc2OCc2ccc(C(=O)Nc3ccccc3N)cc2)cc1`
7920 nM

====

- Tested on: KB
- test description: Antiproliferative activity against human KB cells incubated for 48 hrs by SRB assay
- Type: functional
readout name: GI50

Solved entries:
Value lookup for GI50; key = `N#Cc1ccc(S(=O)(=O)Nc2ccccc2CCc2ccc(C(=O)Nc3ccccc3N)cc2)cc1`
790 nM

Value lookup for GI50; key = `COc1ccc(S(=O)(=O)Nc2ccccc2/C=C/c2ccc(C(=O)Nc3ccccc3N)cc2)cc1`
660 nM

Value lookup for GI50; key = `COc1ccc(S(=O)(=O)Nc2ccccc2CCc2ccc(C(=O)Nc3ccccc3)cc2)cc1`
137 nM

Alright, here's another molecule for you.
Value lookup for GI50; key = `Nc1ccccc1NC(=O)c1ccc(CNC(=O)OCc2cccnc2)cc1`
6630 nM

====

- System: KB
- test description: Antiproliferative activity against human KB cells incubated for 48 hrs by SRB assay
- Type: functional
Would you kindly list GI50 for each of these molecules?
One number for each entry, in nM.

Solved entries:
Value lookup for GI50; key = `COc1ccc(S(=O)(=O)Nc2ccccc2OCc2ccc(C(=O)Nc3ccccc3N)cc2)cc1`
60

Value lookup for GI50; key = `Nc1ccccc1NC(=O)c1ccc(CCc2ccccc2NS(=O)(=O)c2ccc(Br)cc2)cc1`
124

Further cases:
Value lookup for GI50; key = COc1cc([C@@H]2c3cc4c(cc3[C@@H](O[C@@H]3O[C@@H]5CO[C@@H](C)O[C@H]5[C@H](O)[C@H]3O)[C@H]3COC(=O)[C@H]23)OCO4)cc(OC)c1O [ETOPOSIDE]
8390

====

- target of assay: Histone deacetylase 1 (Homo sapiens, UniProt Q13547)
- Sequence (Q13547 whole entry, the tested form may be a part): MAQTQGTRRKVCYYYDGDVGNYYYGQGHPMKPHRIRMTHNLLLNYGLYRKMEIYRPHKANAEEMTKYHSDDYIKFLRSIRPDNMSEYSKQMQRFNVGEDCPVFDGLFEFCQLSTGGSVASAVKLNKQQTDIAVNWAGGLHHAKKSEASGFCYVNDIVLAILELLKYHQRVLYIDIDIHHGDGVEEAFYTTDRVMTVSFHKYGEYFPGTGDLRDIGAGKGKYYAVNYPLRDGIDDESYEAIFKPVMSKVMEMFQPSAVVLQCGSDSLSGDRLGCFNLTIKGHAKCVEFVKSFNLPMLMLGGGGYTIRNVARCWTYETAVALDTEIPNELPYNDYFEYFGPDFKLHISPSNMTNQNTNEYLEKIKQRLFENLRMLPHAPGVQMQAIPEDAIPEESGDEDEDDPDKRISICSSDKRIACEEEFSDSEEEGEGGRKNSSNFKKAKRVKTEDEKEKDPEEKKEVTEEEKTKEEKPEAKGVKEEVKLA
- test description: Inhibition of recombinant human full-length C-terminal FLAG-His tagged HDAC1 (1 to 482 residues) expressed in Sf21 insect cells using RHK-K(Ac)-AMC as substrate measured after 60 mins by fluorescence assay
readout name: pIC50
Numbers only, as −log10 of the molar value.

Solved entries:
Value lookup for pIC50; key = `COc1ccc(S(=O)(=O)Nc2ccccc2CCc2ccc(C(=O)Nc3ccccc3N)cc2)cc1`
5.92

Value lookup for pIC50; key = `COc1ccc(S(=O)(=O)Nc2ccccc2OCc2ccc(C(=O)Nc3ccccc3N)cc2)cc1`
5.26

Further cases:
Value lookup for pIC50; key = `COc1ccc(S(=O)(=O)Nc2ccccc2NCc2ccc(C(=O)Nc3ccccc3N)cc2)cc1`
5.97

====

- target of assay: Histone deacetylase 2 (Homo sapiens, UniProt Q92769)
- Sequence (Q92769 whole entry, the tested form may be a part): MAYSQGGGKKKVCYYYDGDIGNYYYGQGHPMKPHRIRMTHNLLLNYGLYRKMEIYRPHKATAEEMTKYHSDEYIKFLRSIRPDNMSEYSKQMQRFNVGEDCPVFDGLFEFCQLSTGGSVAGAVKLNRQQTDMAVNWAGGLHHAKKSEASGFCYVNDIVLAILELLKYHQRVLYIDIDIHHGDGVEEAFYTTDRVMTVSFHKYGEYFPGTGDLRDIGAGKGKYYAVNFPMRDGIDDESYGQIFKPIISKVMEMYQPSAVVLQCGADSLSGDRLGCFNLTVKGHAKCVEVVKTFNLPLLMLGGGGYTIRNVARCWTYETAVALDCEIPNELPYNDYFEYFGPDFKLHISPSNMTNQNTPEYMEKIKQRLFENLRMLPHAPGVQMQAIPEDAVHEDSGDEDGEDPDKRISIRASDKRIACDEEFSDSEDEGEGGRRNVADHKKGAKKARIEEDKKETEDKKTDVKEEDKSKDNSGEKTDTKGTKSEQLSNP
- test description: Inhibition of recombinant human C-terminal GST-tagged HDAC2 (1 to 488 residues) expressed in baculovirus infected insect cells using RHKKAc-AMC as substrate measured after 60 mins by fluorescence assay
Would you kindly list IC50 for each of these compounds?
One number for each entry, in µM.

Solved entries:
Value lookup for IC50; key = `COc1ccc(S(=O)(=O)Nc2ccccc2NCc2ccc(C(=O)Nc3ccccc3N)cc2)cc1`
1.47

Value lookup for IC50; key = `COc1ccc(S(=O)(=O)Nc2ccccc2OCc2ccc(C(=O)Nc3ccccc3N)cc2)cc1`
4.95

Alright, here's another compound for you.
Value lookup for IC50; key = `COc1ccc(S(=O)(=O)Nc2ccccc2CCc2ccc(C(=O)Nc3cc(F)ccc3N)cc2)cc1`
9.08

====

- Tested on: KB
- test description: Antiproliferative activity against human KB cells incubated for 48 hrs by SRB assay
- Assay type: functional
Would you kindly list GI50 for each of these compounds?
Answers are plain numbers, in µM.

Solved entries:
Value lookup for GI50; key = `COc1cccc(S(=O)(=O)Nc2ccccc2CCc2ccc(C(=O)Nc3ccccc3N)cc2)c1`
0.462

Value lookup for GI50; key = `COc1ccc(S(=O)(=O)Nc2ccccc2CCc2ccc(C(=O)Nc3ccc(N)cc3)cc2)cc1`
0.286

Value lookup for GI50; key = `COc1ccc(S(=O)(=O)Nc2ccccc2NCc2ccc(C(=O)Nc3ccccc3N)cc2)cc1`
0.01

Value lookup for GI50; key = `COc1ccc(S(=O)(=O)Nc2cccnc2Nc2ccc(O)cc2)cc1`
0.801

Value lookup for GI50; key = `Nc1ccccc1NC(=O)c1ccc(CCc2ccccc2NS(=O)(=O)c2ccc(F)cc2)cc1`
0.884

Required: GI50, one value per compound below.
1. COc1ccc(S(=O)(=O)Nc2cccc(CCc3ccc(C(=O)Nc4ccccc4N)cc3)c2)cc1
2. COc1ccc(S(=O)(=O)Nc2ccccc2CCc2ccc(C(=O)Nc3ccccc3O)cc2)cc1
3. COc1ccc(S(=O)(=O)Nc2ccccc2CCc2ccc(C(=O)Nc3cccc(N)c3)cc2)cc1
4. COc1ccc(S(=O)(=O)Nc2ccccc2CCc2ccc(C(=O)Nc3ccccc3N)cc2)cc1
5. COc1ccc(S(=O)(=O)Nc2ccccc2-c2ccc(C(=O)Nc3ccccc3N)cc2)cc1
6. Nc1ccccc1NC(=O)c1ccc(CCc2ccccc2NS(=O)(=O)c2ccc(Cl)cc2)cc1
7. CC[C@]1(O)C[C@H]2CN(CCc3c([nH]c4ccccc34)[C@@](C(=O)OC)(c3cc4c(cc3OC)N(C=O)[C@H]3[C@@](O)(C(=O)OC)[C@H](OC(C)=O)[C@]5(CC)C=CCN6CC[C@]43[C@@H]65)C2)C1
8. Nc1ccccc1NC(=O)c1ccc(CCc2ccccc2NS(=O)(=O)c2ccccc2)cc1

[0.678, 0.472, 0.697, 0.023, 0.442, 0.448, 0.00186, 0.456]

Required: GI50, one value per compound below.
1. COc1ccc(S(=O)(=O)Nc2ccccc2CCc2ccc(C(=O)Nc3cc(F)ccc3N)cc2)cc1
2. COc1ccc(S(=O)(=O)Nc2ccccc2CCc2ccccc2)cc1
3. COc1ccc(S(=O)(=O)Nc2ccccc2CCc2ccc(C(=O)Nc3ccccc3N)cc2)cc1OC

1: 0.066; 2: 4.41; 3: 0.888
